Where do the numbers come from? From ChEMBL document CHEMBL1201862.

Target: Streptokinase A (Streptococcus pyogenes serotype M1, UniProt P10520)
Sequence (P10520 whole entry): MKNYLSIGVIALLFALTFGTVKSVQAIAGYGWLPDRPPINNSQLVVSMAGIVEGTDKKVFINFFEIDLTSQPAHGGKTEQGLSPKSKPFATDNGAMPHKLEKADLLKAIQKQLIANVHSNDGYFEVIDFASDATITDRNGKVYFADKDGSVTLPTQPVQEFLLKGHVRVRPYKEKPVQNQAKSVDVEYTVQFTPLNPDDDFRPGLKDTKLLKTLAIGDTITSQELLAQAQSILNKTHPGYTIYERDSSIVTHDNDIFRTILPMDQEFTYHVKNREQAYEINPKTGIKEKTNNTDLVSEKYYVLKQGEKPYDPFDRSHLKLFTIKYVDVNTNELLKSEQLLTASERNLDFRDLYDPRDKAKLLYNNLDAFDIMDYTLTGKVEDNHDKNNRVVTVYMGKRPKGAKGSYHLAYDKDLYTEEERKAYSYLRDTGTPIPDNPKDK
Assay: viability-normalized secreted streptokinase activity reduction – plasminogen activation absorbance, OD405, dose response (AID 1914);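 note: secreted streptokinase activity via plasminogen activation per viability signal from cell pellet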
Format: functional, Streptococcus pyogenes M1 GAS
Calls of active or inactive are those of the source.
observable: EC50

IN: Param item = CCOc1ccc(Nc2nc(N3CCCCC3)nc(N3CCCCC3)n2)cc1 ; retrieve measured EC50.
OUT: > 150 µM (not active)

IN: Param item = COc1ccc2nc(-n3c(C)ccc3C)sc2c1 ; retrieve measured EC50.
OUT: > 150 µM (not active)

IN: Param item = c1ccc(CN2CCN(c3nc4ccccc4c4ccccc34)CC2)cc1 ; retrieve measured EC50.
OUT: 14.9 µM (active)

IN: Param item = CC(C)N1CCc2c(sc(NC(=O)CCS(=O)(=O)c3ccccc3)c2C#N)C1 ; retrieve measured EC50.
OUT: > 150 µM (not active)

IN: Param item = O=C(O)c1cccc2c(-c3ccccc3)c(-c3ccccc3)[nH]c12 ; retrieve measured EC50.
OUT: 15.6 µM (active)

IN: Param item = CN(C)CCCNc1cc(C(C)(C)C)nc2c(-c3ccc(Cl)cc3)cnn12 ; retrieve measured EC50.
OUT: > 150 µM (not active)

====

Molecular target: Sentrin-specific protease 8 (Homo sapiens, UniProt Q96LD8);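 note: luminescence read-out of SENP8 inhibition, dose-response confirmation following an ultra-high-throughput screen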
Sequence (Q96LD8 whole entry): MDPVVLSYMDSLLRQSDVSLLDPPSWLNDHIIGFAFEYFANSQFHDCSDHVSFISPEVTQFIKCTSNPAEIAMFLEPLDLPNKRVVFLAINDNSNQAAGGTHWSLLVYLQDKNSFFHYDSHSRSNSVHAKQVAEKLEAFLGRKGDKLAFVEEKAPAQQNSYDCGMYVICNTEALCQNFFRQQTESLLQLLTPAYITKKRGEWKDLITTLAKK
Format: functional
Activity calls are given as the source filed them.
observable: IC50

IN: Param item = O=C(Nc1ccc(C2CC2(Cl)Cl)cc1)c1cccc([N+](=O)[O-])c1 (stereo unspecified) ; retrieve measured IC50.
OUT: 29.5 µM (active)

IN: Param item = Cc1csc(N/N=C/c2ccc(O)c([N+](=O)[O-])c2)n1 ; retrieve measured IC50.
OUT: 8.45 µM (active)

IN: Param item = CCCCCc1ccc(-c2ccc(OC)cc2)nc1 ; retrieve measured IC50.
OUT: 80.5 µM (active)

IN: Param item = O=C(NCCSc1ccccc1)c1ccc(Br)cc1 ; retrieve measured IC50.
OUT: 26.8 µM (active)

IN: Param item = COc1ccc(/C=N/N2CCN(c3ccccc3OC)CC2)cc1Br ; retrieve measured IC50.
OUT: 54.9 µM (active)

IN: Param item = Oc1[nH]c2ccccc2c1N=Nc1ccc(F)cc1 ; retrieve measured IC50.
OUT: 3.07 µM (active)

====

Molecular target: Sentrin-specific protease 6 (Homo sapiens, UniProt Q9GZR1)
Sequence (Q9GZR1 whole entry): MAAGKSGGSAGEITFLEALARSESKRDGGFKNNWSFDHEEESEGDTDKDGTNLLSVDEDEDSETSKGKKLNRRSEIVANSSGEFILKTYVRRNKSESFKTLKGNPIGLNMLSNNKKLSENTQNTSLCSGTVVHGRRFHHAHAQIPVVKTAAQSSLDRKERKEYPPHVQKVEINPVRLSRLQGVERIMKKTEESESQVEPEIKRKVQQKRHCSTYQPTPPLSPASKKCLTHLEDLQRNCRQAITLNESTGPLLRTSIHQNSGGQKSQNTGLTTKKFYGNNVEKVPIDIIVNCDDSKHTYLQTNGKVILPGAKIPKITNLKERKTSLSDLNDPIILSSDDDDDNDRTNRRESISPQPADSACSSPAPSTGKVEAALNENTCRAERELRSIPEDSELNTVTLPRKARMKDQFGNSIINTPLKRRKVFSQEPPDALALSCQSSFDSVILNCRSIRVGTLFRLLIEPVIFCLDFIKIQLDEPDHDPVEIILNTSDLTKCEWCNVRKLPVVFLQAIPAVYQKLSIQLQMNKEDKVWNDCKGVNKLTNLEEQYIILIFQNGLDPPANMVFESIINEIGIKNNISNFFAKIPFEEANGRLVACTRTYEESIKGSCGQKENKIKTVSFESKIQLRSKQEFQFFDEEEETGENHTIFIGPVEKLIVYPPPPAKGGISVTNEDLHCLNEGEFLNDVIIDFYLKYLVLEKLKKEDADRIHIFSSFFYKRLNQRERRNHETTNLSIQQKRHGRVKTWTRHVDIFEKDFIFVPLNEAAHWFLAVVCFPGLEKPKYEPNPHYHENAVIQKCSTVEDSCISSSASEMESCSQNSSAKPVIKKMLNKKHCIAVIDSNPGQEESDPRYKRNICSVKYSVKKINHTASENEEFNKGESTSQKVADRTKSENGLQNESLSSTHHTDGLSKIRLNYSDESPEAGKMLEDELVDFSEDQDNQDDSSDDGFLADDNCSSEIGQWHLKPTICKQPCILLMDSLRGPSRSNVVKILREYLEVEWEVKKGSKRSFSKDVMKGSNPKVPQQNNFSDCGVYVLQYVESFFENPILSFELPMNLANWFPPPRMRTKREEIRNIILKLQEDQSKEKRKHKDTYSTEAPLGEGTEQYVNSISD
Assay type: functional
Activity calls are given as the source filed them.
observable: IC50

IN: Param item = O=C(Nc1ccc(C2CC2(Cl)Cl)cc1)c1cccc([N+](=O)[O-])c1 (stereo unspecified) ; retrieve measured IC50.
OUT: 7.84 µM (active)

IN: Param item = Cc1csc(N/N=C/c2ccc(O)c([N+](=O)[O-])c2)n1 ; retrieve measured IC50.
OUT: 9.25 µM (active)

IN: Param item = Oc1[nH]c2ccccc2c1N=Nc1ccc(F)cc1 ; retrieve measured IC50.
OUT: 2.03 µM (active)

IN: Param item = COc1ccc(/C=N/N2CCN(c3ccccc3OC)CC2)cc1Br ; retrieve measured IC50.
OUT: 25 µM (active)

IN: Param item = CCCCCc1ccc(-c2ccc(OC)cc2)nc1 ; retrieve measured IC50.
OUT: 41.8 µM (active)

IN: Param item = O=C(NCCSc1ccccc1)c1ccc(Br)cc1 ; retrieve measured IC50.
OUT: 22.4 µM (active)
